Tested on: MRSA ATCC BAA-38
Experiment: MIC, broth microdilution
Format: cell-based, Staphylococcus aureus
Settings: MRSA ATCC BAA-38
READOUT_KIND: MIC (µg/mL)
State just the number; it will be interpreted in µg/mL.

Request: Which MIC is reported for this compound? N[C@H]1C(=O)N[C@@H]2Cc3ccc(c(Cl)c3)Oc3cc4cc(c3O)Oc3ccc(cc3Cl)[C@@H](O[C@@H]3O[C@H](CO)[C@@H](O)[C@H](O)[C@H]3NC(=O)CCc3ccccc3)[C@@H]3NC(=O)[C@H](NC(=O)[C@@H]4NC(=O)[C@@H](NC2=O)c2cc(O)cc(c2)Oc2cc1ccc2O)c1ccc(O)c(c1)-c1c(O)cc(O)cc1[C@@H](C(=O)O)NC3=O
Response: 0.016

From here, focus on the item given below.
Request: Which MIC is reported for this compound? N[C@H]1C(=O)N[C@@H]2Cc3ccc(c(Cl)c3)Oc3cc4cc(c3O)Oc3ccc(cc3Cl)[C@@H](O[C@@H]3O[C@H](CO)[C@@H](O)[C@H](O)[C@H]3NC(=O)CCCCCc3ccccc3)[C@@H]3NC(=O)[C@H](NC(=O)[C@@H]4NC(=O)[C@@H](NC2=O)c2cc(O)cc(c2)Oc2cc1ccc2O)c1ccc(O)c(c1)-c1c(O)cc(O)cc1[C@@H](C(=O)O)NC3=O
Response: 0.031
